Target: human GCG receptor (human, UniProt P47871 26-477)
Sequence (P47871 26-477): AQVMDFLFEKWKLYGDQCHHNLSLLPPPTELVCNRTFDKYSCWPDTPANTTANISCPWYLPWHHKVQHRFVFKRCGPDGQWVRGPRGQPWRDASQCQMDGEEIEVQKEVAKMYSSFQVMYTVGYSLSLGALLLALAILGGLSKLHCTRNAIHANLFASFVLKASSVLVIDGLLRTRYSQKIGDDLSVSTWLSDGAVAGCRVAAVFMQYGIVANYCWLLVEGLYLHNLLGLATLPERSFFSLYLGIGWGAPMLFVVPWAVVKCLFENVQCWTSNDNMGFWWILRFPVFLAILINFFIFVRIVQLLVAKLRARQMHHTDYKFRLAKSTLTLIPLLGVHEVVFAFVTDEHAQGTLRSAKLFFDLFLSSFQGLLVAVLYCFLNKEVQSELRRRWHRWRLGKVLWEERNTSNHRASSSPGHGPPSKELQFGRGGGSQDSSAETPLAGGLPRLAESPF
Test: cell-based or functional assay
Bridge positions count the residues as written; N and C are the ends. Square brackets hold non-standard residues; d marks the D form. Ends that are not written are not given here. * marks the point of attachment. Acetyl(2-(4-imidazolyl)) = O=C(Cc1c[nH]cn1)*; Aib = CC(C)(N)C(=O)O
PROPERTY_LABEL: In vitro activity compared to native-type peptide (%), vs Glucagon

                                     binder  readout_units  reading_qualifier  meas_value
0  H[Aib]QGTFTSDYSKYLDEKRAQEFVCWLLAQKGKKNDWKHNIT [triple agonist of SEQ ID NO: 28]              %                  =         1.6
1  {Acetyl(2-(4-imidazolyl))}-[Aib]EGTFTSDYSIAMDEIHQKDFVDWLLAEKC (bridge 15-19) [triple agonist of SEQ ID NO: 91]              %                  =        16.8
2  H[Aib]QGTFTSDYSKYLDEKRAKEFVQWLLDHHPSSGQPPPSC (bridge 16-20) [triple agonist of SEQ ID NO: 50]              %                  =        50.5
3  [Acetyl(2-(4-imidazolyl))]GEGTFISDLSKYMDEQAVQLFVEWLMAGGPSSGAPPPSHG [triple agonist of SEQ ID NO: 12]              %                  <         0.1
4  [Acetyl(2-(4-imidazolyl))]GQGTFTSDLSIQYDSEHQRDFIEWLKDTGPSSGAPPPSHG [triple agonist of SEQ ID NO: 19]              %                  <         0.1
5  Y[Aib]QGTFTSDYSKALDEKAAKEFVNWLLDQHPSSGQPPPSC (bridge 16-20) [triple agonist of SEQ ID NO: 101]              %                  =        13.9
6  {Acetyl(2-(4-imidazolyl))}-[Aib]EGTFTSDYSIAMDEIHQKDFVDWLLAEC (bridge 15-19) [triple agonist of SEQ ID NO: 84]              %                  <         0.1
